Test system: Trypanosoma cruzi amastigote infected macrophages
Test: In vitro antiprotozoal activity, Trypanosoma cruzi
Type: cell-based
Details: 90 uM
Observed property: percentage inhibition, T. cruzi (%)
Form entry: value (%) — number only.

Record excerpt, results attached:
Br.N=C(N)NCCC[C@@H](/C=C/S(=O)(=O)c1ccccc1)NC(=O)[C@H](Cc1ccccc1)NC(=O)N1CCOCC1; 5.8
O=C(NCCCC[C@@H](/C=C/S(=O)(=O)c1ccccc1)NC(=O)[C@H](Cc1ccccc1)NC(=O)N1CCOCC1)OCc1ccccc1 [Mu-Phe-Lys(Z)VSPh]; 0
Cl.NC(C=CS(=O)(=O)c1ccccc1)CCCCNC(=O)OCc1ccccc1 (stereo not drawn) [HCl.(e-Z)LysVSPh]; 97.8

Query: Can you share its percentage inhibition, T. cruzi? I mean this compound: CS(=O)(=O)/C=C/[C@@H](N)Cc1ccccc1.Cl [HCl.PheVSMe]
Reply: 17.3

---

Molecular target: Cathepsin L from rat liver (Rattus norvegicus)
Construct: Cathepsin L from rat liver; from tissue; host or cells: rat liver
Sequence (P07154 114-288 limits assumed): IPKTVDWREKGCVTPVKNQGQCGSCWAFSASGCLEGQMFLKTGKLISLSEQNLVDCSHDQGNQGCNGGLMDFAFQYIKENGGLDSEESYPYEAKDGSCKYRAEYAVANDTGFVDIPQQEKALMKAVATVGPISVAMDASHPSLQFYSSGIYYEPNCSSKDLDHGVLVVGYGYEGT
Sequence (P07154 291-334 limits assumed): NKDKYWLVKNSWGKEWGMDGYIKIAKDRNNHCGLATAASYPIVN
Assay: Inhibition of cathepsin L, Z-Phe-Arg-AMC fluorescence progress curves
Type: biochemical
Conditions: values without asterisk; 25° C., pH 6.2
Observed property: k/KI (kirr/KI)

Br.N=C(N)NCCC[C@@H](/C=C/S(=O)(=O)c1ccccc1)NC(=O)[C@H](Cc1ccccc1)NC(=O)N1CCOCC1; 349,000 M^-1 sec^-1
O=C(NCCCC[C@@H](/C=C/S(=O)(=O)c1ccccc1)NC(=O)[C@H](Cc1ccccc1)NC(=O)N1CCOCC1)OCc1ccccc1 [Mu-Phe-Lys(Z)VSPh]; 120,000 M^-1 sec^-1

Turning now to a further record.
Query: Can you share its k/KI (kirr/KI)? I mean this molecule: O=C(N[C@H](/C=C/S(=O)(=O)c1ccc2ccccc2c1)CCc1ccccc1)C(Cc1ccc2ccccc2c1)NC(=O)N1CCOCC1 (stereo partly drawn)
Reply: 9,200,000 M^-1 sec^-1

---

Biological target: Cloned cathepsin S (Homo sapiens)
Construct: made in house
Sequence (P25774 115-331): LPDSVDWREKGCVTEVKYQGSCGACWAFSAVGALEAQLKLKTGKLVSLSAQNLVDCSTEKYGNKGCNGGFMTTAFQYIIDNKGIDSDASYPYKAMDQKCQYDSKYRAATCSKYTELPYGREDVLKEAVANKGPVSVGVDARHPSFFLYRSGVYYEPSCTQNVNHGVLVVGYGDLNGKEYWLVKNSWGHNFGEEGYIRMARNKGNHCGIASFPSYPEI
Assay: Inhibition of cathepsin S, Z-Val-Val-Arg-AMC fluorescence progress curves
Type: biochemical
Settings: corrected for substrate
Below, each of the molecules is paired with its reported pKi value.
// pKi here means minus log10 of the molar concentration (mol/L)

Query: Can you share its pKi? I mean this molecule: O=C(N[C@H](/C=C/S(=O)(=O)c1ccc2ccccc2c1)CCc1ccccc1)C(Cc1ccc2ccccc2c1)NC(=O)N1CCOCC1 (some centres unmarked)
Reply: 8.74

Query: And then O=C(NCCCC[C@@H](/C=C/S(=O)(=O)c1ccccc1)NC(=O)[C@H](Cc1ccccc1)NC(=O)N1CCOCC1)OCc1ccccc1 [Mu-Phe-Lys(Z)VSPh] , what is it?
Reply: 7.27

Query: And then Br.N=C(N)NCCC[C@@H](/C=C/S(=O)(=O)c1ccccc1)NC(=O)[C@H](Cc1ccccc1)NC(=O)N1CCOCC1 [Mu-Phe-ArgVSPh.HBr, hydrobromide] , what is it?
Reply: 7.80

Query: And then CC(Cc1ccccc1)(NC(=O)N1CCOCC1)C(=O)N[C@H](/C=C/S(=O)(=O)c1ccccc1)CCc1ccccc1 (mixture of isomers) , what is it?
Reply: 4.85

Query: And then CC(C)C[C@H](NC(=O)N1CCOCC1)C(=O)N[C@H](/C=C/S(=O)(=O)c1ccccc1)CCc1ccccc1 , what is it?
Reply: 8.23

Query: And then CCOP(=O)(C/C=C/[C@H](CCc1ccccc1)NC(=O)[C@H](Cc1ccccc1)NC(=O)N1CCOCC1)OCC , what is it?
Reply: 4.44

Query: And then O=C(N[C@H](/C=C/S(=O)(=O)c1ccccc1)CCc1ccccc1)C(Cc1ccccc1)NC(=O)N1CCOCC1 (some centres unmarked) , what is it?
Reply: 7.96

Query: And then CS(=O)(=O)/C=C/[C@H](CCc1ccccc1)NC(=O)[C@H](Cc1ccccc1)NC(=O)N1CCOCC1 , what is it?
Reply: 7.06
